tested.on: RAC-alpha serine/threonine-protein kinase (Homo sapiens, UniProt P31749)
Sequence (P31749 whole entry): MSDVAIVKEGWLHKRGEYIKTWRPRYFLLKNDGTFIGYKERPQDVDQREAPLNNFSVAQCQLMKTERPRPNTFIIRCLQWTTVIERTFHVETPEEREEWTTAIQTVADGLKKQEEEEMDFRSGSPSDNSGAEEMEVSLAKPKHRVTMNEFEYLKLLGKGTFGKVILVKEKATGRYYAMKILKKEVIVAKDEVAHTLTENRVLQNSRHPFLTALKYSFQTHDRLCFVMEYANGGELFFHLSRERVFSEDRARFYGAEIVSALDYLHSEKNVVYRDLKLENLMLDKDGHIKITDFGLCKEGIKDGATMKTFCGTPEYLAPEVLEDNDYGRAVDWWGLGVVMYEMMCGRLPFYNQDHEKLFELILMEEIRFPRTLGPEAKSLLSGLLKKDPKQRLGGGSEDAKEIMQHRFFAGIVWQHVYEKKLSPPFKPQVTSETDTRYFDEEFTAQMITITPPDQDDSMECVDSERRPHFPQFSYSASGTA
measured.quantity: IC50
Write the numeric value and append its unit.

Qu. I'm curious: which IC50 was measured for O=C(Nc1ccc([N+](=O)[O-])cc1Cl)c1cc(Cl)ccc1O [NICLOSAMIDE] tested on RAC-alpha serine/threonine-protein kinase (Homo sapiens, UniProt P31749)?
Ans. 59.4 µM

====

tested.on: Protein kinase C alpha type (Homo sapiens)
measured.quantity: IC50

Qu. Returns the measured IC50 for the input compound. Input: O=C(Nc1ccc([N+](=O)[O-])cc1Cl)c1cc(Cl)ccc1O [NICLOSAMIDE]
Ans. > 100 µM

====

tested.on: Tyrosine-protein kinase ABL1 (Homo sapiens)
Sequence (P00519 whole entry): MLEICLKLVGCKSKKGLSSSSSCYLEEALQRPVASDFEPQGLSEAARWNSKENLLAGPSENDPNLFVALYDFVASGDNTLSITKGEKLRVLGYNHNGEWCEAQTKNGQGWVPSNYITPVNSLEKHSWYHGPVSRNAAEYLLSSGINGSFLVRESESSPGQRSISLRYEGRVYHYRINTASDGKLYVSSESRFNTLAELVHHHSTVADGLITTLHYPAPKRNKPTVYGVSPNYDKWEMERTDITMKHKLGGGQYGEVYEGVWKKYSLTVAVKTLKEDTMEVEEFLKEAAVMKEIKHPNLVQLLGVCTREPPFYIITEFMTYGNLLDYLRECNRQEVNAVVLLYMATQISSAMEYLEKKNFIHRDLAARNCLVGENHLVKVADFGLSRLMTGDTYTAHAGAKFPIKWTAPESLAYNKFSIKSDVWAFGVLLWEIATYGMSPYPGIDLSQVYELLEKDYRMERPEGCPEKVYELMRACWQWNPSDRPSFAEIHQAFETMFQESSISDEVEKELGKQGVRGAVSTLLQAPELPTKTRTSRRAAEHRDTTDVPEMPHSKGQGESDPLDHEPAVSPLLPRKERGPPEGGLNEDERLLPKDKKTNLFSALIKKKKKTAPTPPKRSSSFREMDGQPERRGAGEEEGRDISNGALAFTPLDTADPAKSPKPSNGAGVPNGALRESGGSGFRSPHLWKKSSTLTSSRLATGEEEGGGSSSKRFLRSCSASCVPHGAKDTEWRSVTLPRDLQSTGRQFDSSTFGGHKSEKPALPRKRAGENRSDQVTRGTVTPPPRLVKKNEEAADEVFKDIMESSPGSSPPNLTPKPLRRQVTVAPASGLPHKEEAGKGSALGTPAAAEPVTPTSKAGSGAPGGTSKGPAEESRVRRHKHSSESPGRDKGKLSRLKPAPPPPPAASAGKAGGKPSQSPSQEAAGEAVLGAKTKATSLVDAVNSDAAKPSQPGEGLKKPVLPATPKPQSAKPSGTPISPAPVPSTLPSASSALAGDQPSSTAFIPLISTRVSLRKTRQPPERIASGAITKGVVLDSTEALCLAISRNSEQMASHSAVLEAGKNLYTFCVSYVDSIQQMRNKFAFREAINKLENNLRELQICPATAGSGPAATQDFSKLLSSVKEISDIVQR
pIC50: −log10 of the molar value.
measured.quantity: pIC50

Qu. Returns the measured pIC50 for the input compound. Input: O=C(Nc1ccc([N+](=O)[O-])cc1Cl)c1cc(Cl)ccc1O [NICLOSAMIDE]
Ans. < 4.00

====

System: A-431
run.description: Antiproliferative activity against human A431 cells after 72 hrs by MTT assay
Type: functional, cell-based
condition.summary: A-431, 72 h
measured.quantity: pIC50
// pIC50 here means minus log10 of the molar concentration (mol/L)

Qu. Returns the measured pIC50 for the input molecule. Input: O=C(Nc1ccc([N+](=O)[O-])cc1Cl)c1cc(Cl)ccc1O [NICLOSAMIDE]
Ans. 5.06

====

tested.on: Fibroblast growth factor receptor 1 (Homo sapiens)
Sequence (P11362 whole entry): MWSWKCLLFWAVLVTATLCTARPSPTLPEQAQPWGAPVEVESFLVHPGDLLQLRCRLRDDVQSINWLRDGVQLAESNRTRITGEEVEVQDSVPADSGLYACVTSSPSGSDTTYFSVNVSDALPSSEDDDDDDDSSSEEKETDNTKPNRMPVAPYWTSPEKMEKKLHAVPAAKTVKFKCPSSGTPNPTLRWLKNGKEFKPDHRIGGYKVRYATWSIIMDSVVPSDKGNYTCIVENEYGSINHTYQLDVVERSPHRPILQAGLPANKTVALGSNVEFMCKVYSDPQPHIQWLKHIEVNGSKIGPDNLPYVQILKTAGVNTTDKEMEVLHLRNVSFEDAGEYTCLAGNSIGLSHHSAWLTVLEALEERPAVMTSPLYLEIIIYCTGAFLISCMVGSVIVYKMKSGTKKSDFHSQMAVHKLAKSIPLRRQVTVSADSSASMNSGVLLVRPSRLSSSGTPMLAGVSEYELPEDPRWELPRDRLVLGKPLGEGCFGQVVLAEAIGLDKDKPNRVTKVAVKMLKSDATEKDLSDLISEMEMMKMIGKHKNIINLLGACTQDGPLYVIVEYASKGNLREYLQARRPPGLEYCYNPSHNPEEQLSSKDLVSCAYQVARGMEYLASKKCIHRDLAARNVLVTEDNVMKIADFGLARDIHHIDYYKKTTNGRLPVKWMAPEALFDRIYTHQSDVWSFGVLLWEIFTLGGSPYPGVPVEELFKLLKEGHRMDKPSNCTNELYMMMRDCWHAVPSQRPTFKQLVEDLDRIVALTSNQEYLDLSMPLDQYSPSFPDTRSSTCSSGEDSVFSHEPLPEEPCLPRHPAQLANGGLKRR
measured.quantity: IC50 (µM)
Numeric only. Scale: µM

Qu. Returns the measured IC50 for the input compound. Input: O=C(Nc1ccc([N+](=O)[O-])cc1Cl)c1cc(Cl)ccc1O [NICLOSAMIDE]
Ans. 13.1

====

System: HeLa
run.description: Antiproliferative activity against human HeLa cells after 72 hrs by MTT assay
Assay type: functional, cell-based
measured.quantity: pIC50
// pIC50 here means minus log10 of the molar concentration (mol/L)

Qu. Returns the measured pIC50 for the input molecule. Input: O=C(Nc1ccc([N+](=O)[O-])cc1Cl)c1cc(Cl)ccc1O [NICLOSAMIDE]
Ans. 5.85

====

tested.on: Receptor-type tyrosine-protein kinase FLT3 (Homo sapiens, UniProt P36888)
Sequence (P36888 whole entry): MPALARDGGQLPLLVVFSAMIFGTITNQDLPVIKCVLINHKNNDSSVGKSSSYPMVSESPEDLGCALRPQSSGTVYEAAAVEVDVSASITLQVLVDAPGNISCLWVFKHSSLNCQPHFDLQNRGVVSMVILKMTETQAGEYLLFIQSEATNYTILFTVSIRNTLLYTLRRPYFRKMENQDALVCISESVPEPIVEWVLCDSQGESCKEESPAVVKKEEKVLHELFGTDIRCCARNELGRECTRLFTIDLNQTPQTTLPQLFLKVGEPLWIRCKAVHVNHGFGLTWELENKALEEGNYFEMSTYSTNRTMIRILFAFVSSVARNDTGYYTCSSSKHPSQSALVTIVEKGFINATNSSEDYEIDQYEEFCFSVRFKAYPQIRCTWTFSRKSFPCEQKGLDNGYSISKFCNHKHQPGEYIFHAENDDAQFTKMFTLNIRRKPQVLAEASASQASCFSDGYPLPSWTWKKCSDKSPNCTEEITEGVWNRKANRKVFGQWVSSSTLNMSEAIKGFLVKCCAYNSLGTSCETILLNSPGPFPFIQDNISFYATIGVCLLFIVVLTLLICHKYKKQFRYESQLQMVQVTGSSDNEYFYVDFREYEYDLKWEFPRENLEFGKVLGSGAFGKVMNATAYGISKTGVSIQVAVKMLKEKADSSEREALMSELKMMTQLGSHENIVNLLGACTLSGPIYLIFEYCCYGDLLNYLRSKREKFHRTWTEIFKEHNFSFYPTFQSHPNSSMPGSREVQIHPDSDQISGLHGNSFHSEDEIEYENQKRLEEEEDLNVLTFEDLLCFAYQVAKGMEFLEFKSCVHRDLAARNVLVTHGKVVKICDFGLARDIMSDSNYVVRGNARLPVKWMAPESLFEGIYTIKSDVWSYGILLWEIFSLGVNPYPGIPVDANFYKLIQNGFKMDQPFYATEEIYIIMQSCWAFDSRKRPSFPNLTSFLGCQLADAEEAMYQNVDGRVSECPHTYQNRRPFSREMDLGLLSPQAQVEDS
measured.quantity: IC50

Qu. Returns the measured IC50 for the input compound. Input: O=C(Nc1ccc([N+](=O)[O-])cc1Cl)c1cc(Cl)ccc1O [NICLOSAMIDE]
Ans. > 100 µM

====

Test system: PC-3
run.description: Antiproliferative activity against human PC3 cells after 72 hrs by MTT assay
Type: functional, cell-based
condition.summary: PC-3, 72 h
measured.quantity: IC50 (µM)
Numeric only. Scale: µM

Qu. Returns the measured IC50 for the input compound. Input: O=C(Nc1ccc([N+](=O)[O-])cc1Cl)c1cc(Cl)ccc1O [NICLOSAMIDE]
Ans. 11.7

====

tested.on: Mitogen-activated protein kinase 1 (Homo sapiens, UniProt P28482)
Sequence (P28482 whole entry): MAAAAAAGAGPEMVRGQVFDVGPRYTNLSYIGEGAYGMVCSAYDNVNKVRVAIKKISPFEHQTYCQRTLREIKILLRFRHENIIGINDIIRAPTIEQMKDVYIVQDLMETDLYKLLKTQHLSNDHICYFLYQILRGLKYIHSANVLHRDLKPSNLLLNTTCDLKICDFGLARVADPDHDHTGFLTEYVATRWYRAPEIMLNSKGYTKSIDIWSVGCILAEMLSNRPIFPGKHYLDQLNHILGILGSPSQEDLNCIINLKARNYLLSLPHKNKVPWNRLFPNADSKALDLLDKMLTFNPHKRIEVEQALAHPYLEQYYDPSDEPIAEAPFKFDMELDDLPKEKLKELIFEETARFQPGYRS
run.description: Inhibition of Erk2 after 60 mins by radiometric assay
pIC50: −log10 of the molar value.
measured.quantity: pIC50

Qu. Returns the measured pIC50 for the input compound. Input: O=C(Nc1ccc([N+](=O)[O-])cc1Cl)c1cc(Cl)ccc1O [NICLOSAMIDE]
Ans. < 4.00

====

tested.on: Serine/threonine-protein kinase B-raf (Homo sapiens)
measured.quantity: IC50

Qu. Returns the measured IC50 for the input compound. Input: O=C(Nc1ccc([N+](=O)[O-])cc1Cl)c1cc(Cl)ccc1O [NICLOSAMIDE]
Ans. > 100 µM

====

tested.on: Serine/threonine-protein kinase B-raf (Homo sapiens, UniProt P15056, V600E)
Sequence (P15056 2-766 V600E limits assumed): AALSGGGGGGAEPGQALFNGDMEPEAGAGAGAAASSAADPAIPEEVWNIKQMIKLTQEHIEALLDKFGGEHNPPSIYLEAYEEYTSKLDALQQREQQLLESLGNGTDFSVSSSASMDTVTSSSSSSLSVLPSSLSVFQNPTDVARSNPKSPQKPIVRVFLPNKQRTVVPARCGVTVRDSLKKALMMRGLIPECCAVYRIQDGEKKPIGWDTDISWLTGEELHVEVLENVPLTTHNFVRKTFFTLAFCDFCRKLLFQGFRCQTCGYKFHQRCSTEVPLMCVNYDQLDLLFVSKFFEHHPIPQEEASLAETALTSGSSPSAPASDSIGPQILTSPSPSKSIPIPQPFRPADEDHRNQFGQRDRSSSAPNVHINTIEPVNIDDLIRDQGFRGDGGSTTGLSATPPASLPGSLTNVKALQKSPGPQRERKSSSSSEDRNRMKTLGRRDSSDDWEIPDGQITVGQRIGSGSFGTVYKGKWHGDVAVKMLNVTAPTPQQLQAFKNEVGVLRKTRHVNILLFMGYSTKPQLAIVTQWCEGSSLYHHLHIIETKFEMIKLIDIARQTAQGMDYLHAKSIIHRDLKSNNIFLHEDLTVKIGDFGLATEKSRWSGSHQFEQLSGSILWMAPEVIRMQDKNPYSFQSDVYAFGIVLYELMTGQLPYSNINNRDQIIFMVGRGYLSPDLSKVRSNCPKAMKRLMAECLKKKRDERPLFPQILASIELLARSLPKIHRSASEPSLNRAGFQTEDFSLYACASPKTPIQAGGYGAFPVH
run.description: Inhibition of B-Raf V600E mutant after 60 mins by radiometric assay
measured.quantity: IC50

Qu. Returns the measured IC50 for the input compound. Input: O=C(Nc1ccc([N+](=O)[O-])cc1Cl)c1cc(Cl)ccc1O [NICLOSAMIDE]
Ans. > 100 µM

====

Tested on: HT-29
run.description: Antiproliferative activity against human HT-29 cells after 72 hrs by MTT assay
Assay type: functional, cell-based
condition.summary: HT-29, 72 h
measured.quantity: pIC50
// pIC50 here means minus log10 of the molar concentration (mol/L)

Qu. Returns the measured pIC50 for the input molecule. Input: O=C(Nc1ccc([N+](=O)[O-])cc1Cl)c1cc(Cl)ccc1O [NICLOSAMIDE]
Ans. 5.14

====

tested.on: Mitogen-activated protein kinase 8 (Homo sapiens)
Sequence (P45983 whole entry): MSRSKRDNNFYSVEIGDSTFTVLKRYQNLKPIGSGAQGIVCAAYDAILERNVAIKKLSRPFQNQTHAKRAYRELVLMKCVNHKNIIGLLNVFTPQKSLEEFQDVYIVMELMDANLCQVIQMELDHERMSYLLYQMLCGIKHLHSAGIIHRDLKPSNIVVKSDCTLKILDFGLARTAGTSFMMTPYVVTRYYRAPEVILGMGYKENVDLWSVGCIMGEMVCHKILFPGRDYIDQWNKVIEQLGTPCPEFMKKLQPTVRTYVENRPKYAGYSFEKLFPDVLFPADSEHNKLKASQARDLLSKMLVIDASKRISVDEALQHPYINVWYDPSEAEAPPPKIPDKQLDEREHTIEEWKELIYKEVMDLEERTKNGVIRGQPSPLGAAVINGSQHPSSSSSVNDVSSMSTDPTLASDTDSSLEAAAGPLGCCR
run.description: Inhibition of JNK1 after 60 mins by radiometric assay
pIC50: −log10 of the molar value.
measured.quantity: pIC50

Qu. I'm curious: which pIC50 was measured for O=C(Nc1ccc([N+](=O)[O-])cc1Cl)c1cc(Cl)ccc1O [NICLOSAMIDE] tested on Mitogen-activated protein kinase 8 (Homo sapiens)?
Ans. < 4.00

====

tested.on: 3-phosphoinositide-dependent protein kinase 1 (Homo sapiens, UniProt O15530)
Sequence (O15530 whole entry): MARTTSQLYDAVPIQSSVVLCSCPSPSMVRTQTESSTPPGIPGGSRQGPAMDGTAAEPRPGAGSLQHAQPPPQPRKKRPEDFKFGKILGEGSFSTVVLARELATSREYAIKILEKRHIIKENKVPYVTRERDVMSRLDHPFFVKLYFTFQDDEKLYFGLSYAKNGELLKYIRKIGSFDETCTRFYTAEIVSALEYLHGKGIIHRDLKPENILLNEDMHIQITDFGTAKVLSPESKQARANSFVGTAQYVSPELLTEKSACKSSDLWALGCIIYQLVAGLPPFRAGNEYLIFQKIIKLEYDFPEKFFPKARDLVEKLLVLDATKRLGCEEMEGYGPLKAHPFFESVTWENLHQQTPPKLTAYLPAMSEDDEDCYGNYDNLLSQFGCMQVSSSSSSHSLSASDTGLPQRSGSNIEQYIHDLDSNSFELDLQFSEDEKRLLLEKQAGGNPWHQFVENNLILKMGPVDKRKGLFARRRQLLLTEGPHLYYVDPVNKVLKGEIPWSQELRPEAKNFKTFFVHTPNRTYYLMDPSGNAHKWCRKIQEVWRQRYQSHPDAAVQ
measured.quantity: pIC50
// pIC50 here means minus log10 of the molar concentration (mol/L)

Qu. Returns the measured pIC50 for the input compound. Input: O=C(Nc1ccc([N+](=O)[O-])cc1Cl)c1cc(Cl)ccc1O [NICLOSAMIDE]
Ans. 4.08

====

tested.on: Glycogen synthase kinase-3 beta (Homo sapiens)
Sequence (P49841 whole entry): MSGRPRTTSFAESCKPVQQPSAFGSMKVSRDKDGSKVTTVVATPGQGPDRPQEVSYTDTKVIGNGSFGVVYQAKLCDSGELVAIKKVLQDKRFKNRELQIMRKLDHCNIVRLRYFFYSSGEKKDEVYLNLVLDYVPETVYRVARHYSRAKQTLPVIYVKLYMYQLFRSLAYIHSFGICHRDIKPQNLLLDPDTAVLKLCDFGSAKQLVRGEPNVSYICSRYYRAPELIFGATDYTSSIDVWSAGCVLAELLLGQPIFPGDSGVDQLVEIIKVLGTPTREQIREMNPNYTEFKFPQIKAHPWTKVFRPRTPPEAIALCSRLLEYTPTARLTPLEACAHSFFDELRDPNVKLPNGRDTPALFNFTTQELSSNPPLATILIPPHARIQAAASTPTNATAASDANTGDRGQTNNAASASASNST
measured.quantity: IC50 (µM)
Numeric only. Scale: µM

Qu. Returns the measured IC50 for the input compound. Input: O=C(Nc1ccc([N+](=O)[O-])cc1Cl)c1cc(Cl)ccc1O [NICLOSAMIDE]
Ans. 77.5
